Assay: qHTS assay to identify small molecule agonists of the estrogen related receptor (ERR) signaling pathway from Tox21 library (AID 1224849); also: % is scaled to controls: 0 for no effect and ±100 for the full control effect; nearly all actives have a fitted effect of over 15% in size
Conditions: ERR reporter cell line, ONE-Glo luciferase, 18 h; at 92.4 µM (top of the series) unless noted
Calls of active or inactive are those of the source. Calls follow the shape of the full dose curve.
This section presents compounds with their documented activity change, positive = activation values.

Example compounds with recorded activity change, positive = activation:
# Compound, activity change, positive = activation
rows = [
    ("CCC(C)(C)c1cc(O)c(C(C)(C)CC)cc1O", "-67.5% (inactive)"),
    ("CC(C)N=C(N)/N=C(\\N)Nc1ccc(Cl)cc1", "-24.8% [at 42.5 µM] (inactive)"),
    ("O=c1cccc[nH]1", "0.143% (inactive)"),
]

Given item "COc1cc(C(=O)NS(=O)(=O)c2ccccc2C)ccc1Cc1cn(C)c2ccc(NC(=O)OC3CCCC3)cc12" , the value recorded as its activity change, positive = activation is -10.9% [at 42.5 µM] (inactive)

Given item "O=C1OC(=O)c2cccc3cccc1c23" , the value recorded as its activity change, positive = activation is -2.65% (inactive)

Given item "CCCCCCCC/C=C\CCCCCCCC(=O)N(C)CC(=O)O" , the value recorded as its activity change, positive = activation is -30% (inactive)

Given item "CCCCOCC" , the value recorded as its activity change, positive = activation is -0.464% (inactive)

----------
Test: qHTS assay to identify small molecule agonists of the estrogen related receptor signaling pathway with the pleiotropic PPARgamma coactivator (PGC) from Tox21 10K library (AID 1224842); also: % is scaled to controls: 0 for no effect and ±100 for the full control effect; nearly all actives have a fitted effect of over 15% in size
Settings: PGC/ERR reporter cell line, luciferase ONE-Glo, 18 h; series mostly up to 92.4 µM
Inconclusive results are not listed. The source made the active and inactive calls. Calls come from the whole dose curve; as a rule, active = well fitted activation curve with a large enough effect in the repeat runs; inconclusive = weak or mixed curves, or effect the other way; inactive = no such curve, though single readings can be large or run the other way.

# Compound, activation
measured = [
    ("C[C@H]1O[C@@H](O[C@H]2[C@@H](O)C[C@H](O[C@H]3[C@@H](O)C[C@H](O[C@H]4CC[C@@]5(C)[C@H](CC[C@@H]6[C@@H]5C[C@@H](O)[C@]5(C)[C@@H](C7=CC(=O)OC7)CC[C@]65O)C4)O[C@@H]3C)O[C@@H]2C)C[C@H](O)[C@@H]1O", "inactive"),
    ("CC(C(O)c1ccccc1)N(C)CCOC(c1ccccc1)c1ccccc1 (stereo not drawn)", "inactive"),
    ("CCOC(=O)C1=C(C)NC(C)=C(C(=O)OCC)C1c1ccccc1/C=C/C(=O)OC(C)(C)C", "inactive"),
]

----------
Molecular target: Nuclear receptor subfamily 1 group I member 2 (Homo sapiens) (UniProt O75469)
Assay: CYP3A4 induction through human pregnane X receptor (PXR) by small molecules, qHTS assay (AID 1346984); also: nearly all actives have a fitted effect of over 40% in size; as to activation: % is scaled to controls: 0 for no effect and ±100 for the full control effect
Conditions: DPX-2 HepG2 PXR, CYP3A4-luciferin luminescence, 24 h; series mostly up to 46.1 µM
Records with an inconclusive call do not appear. The source made the active and inactive calls. Calls come from the whole dose curve; as a rule, active = well fitted activation curve with a large enough effect in the repeat runs; inconclusive = weak or mixed curves; inactive = no such curve, though single readings can be large or run the other way.
Hi there, use one of these labels in your reply, thanks! Yes for active, No for inactive

Consider the worked cases shown below.
# Molecule, Classification
records = [
    ("Cc1c(C)n(Cc2ccccc2)c2ccc(C(=O)OCCN(C)C)cc12", "Yes"),
    ("CCN(CC)CCSC(=O)C(c1ccccc1)c1ccccc1", "No"),
]

*Q* // param item: "NC(=O)C(=O)N/N=C/c1ccc([N+](=O)[O-])o1" ; yields the recorded call
*A* No

*Q* // param item: "Cc1cccc(C)c1NC(=O)CN1CCN(CCCC(c2ccc(F)cc2)c2ccc(F)cc2)CC1" ; yields the recorded call
*A* No

*Q* // param item: CN1CCN(C2Cc3ccccc3Sc3ccc(Cl)cc32)CC1 (stereo unspecified) ; yields the recorded call
*A* Yes

*Q* // param item: "N[C@@H](CSSC[C@H](N)C(=O)O)C(=O)O" ; yields the recorded call
*A* No

*Q* // param item: "CCCCOc1ccc(C(=O)CCN2CCCCC2)cc1" ; yields the recorded call
*A* No

*Q* // param item: CC(CN(C)C)CN1c2ccccc2CCc2ccccc21 (stereo unspecified) ; yields the recorded call
*A* Yes

*Q* // param item: "C/C=C/C=N/NC(=O)c1ccncc1" ; yields the recorded call
*A* No

*Q* // param item: "S=P(N1CC1)(N1CC1)N1CC1" ; yields the recorded call
*A* No

*Q* // param item: CCCCN(CCCC)CCC(O)c1cc2c(Cl)cc(Cl)cc2c2cc(C(F)(F)F)ccc12 (stereo unspecified) ; yields the recorded call
*A* No

*Q* // param item: "COc1cc(C=C2CCC/C(=C\c3ccc(O)c(OC)c3)C2=O)ccc1O" ; yields the recorded call
*A* No

*Q* // param item: "COCC(=O)O[C@]1(CCN(C)CCCc2nc3ccccc3[nH]2)CCc2cc(F)ccc2[C@@H]1C(C)C" ; yields the recorded call
*A* No

*Q* // param item: "CCN(CC)CCCN(c1ccccc1)C1Cc2ccccc2C1" ; yields the recorded call
*A* No

*Q* // param item: "CCCN(CCc1cccs1)[C@H]1CCc2c(O)cccc2C1" ; yields the recorded call
*A* No

*Q* // param item: O=C1OC(OC(=O)c2cccnc2Nc2cccc(C(F)(F)F)c2)c2ccccc21 (stereo unspecified) ; yields the recorded call
*A* No

*Q* // param item: "CCOC(=O)[C@@](C)(N)Cc1ccc(O)c(O)c1" ; yields the recorded call
*A* No
